Listing of recorded solubility by entry.
assay: Aqueous solubility of the compound at pH 6.8 by automated polarized light microscopy analysis; assay type: physicochemical

compound smiles | observable | observed result
CC(C)CNc1cc(N(C)CCNc2ccnc(N)n2)nc(N)n1 | solubility | > 84 µg/mL
CN1CCN(C(=O)c2cc3cc(Cl)ccc3[nH]2)CC1 | solubility | 58 µg/mL
CC(C)CCc1cc(NCCNc2ccnc(N)n2)nc(N)n1 | solubility | > 79 µg/mL
CC(C)CCc1cc(N(C)CCNc2ccnc(N)n2)nc(N)n1 | solubility | > 83 µg/mL
Nc1nccc(NCCNc2cc(-c3cccc(Cl)c3)nc(N)n2)n1 | solubility | > 76 µg/mL

Return reported solubility; argument: CN1CCN(c2cc(-c3ccccc3)nc(N)n2)CC1
61 µg/mL

Return reported solubility; argument: CC(C)CNc1cc(N2CCN(C)CC2)nc(N)n1
> 64 µg/mL

Return reported solubility; argument: CC(C)CCc1cc(N2CCN(C)CC2)nc(N)n1
> 62 µg/mL

###

target: Histamine H4 receptor (Homo sapiens, UniProt Q9H3N8); assay: Displacement of [3H]histamine displacement from human recombinant histamine H4 receptor expressed in […] cells after 45 mins; type: cell-based, SK-N-MC
Sequence (Q9H3N8 whole entry): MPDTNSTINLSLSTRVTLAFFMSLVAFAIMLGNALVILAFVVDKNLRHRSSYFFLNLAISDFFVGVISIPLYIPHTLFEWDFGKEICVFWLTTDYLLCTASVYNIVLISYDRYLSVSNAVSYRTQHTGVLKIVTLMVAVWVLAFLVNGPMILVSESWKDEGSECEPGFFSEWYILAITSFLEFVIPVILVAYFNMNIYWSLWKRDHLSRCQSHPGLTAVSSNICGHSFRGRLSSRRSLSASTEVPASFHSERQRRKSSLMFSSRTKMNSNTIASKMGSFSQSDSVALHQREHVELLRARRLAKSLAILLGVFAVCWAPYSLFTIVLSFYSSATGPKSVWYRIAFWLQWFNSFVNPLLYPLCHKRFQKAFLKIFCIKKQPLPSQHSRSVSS
observable: Ki (nM)
// return numeric value only (unit: nM, not printed)

Solved entries (count: 4):
compound smiles | assay system | Ki [nM]
CN1CCN(c2cc(-c3ccccc3)nc(N)n2)CC1 | Histamine H4 receptor (Homo sapiens, UniProt Q9H3N8) | 7.94
CC(C)CCc1cc(N2CCN(C)CC2)nc(N)n1 | Histamine H4 receptor (Homo sapiens, UniProt Q9H3N8) | 3.16
Nc1nccc(NCCNc2cc(-c3ccccc3)nc(N)n2)n1 | Histamine H4 receptor (Homo sapiens, UniProt Q9H3N8) | 7.94
CN1CCN(c2cc(-c3ccc(Cl)cc3)nc(N)n2)CC1 | Histamine H4 receptor (Homo sapiens, UniProt Q9H3N8) | 3.16

# evaluate next
For the record CC(C)CNc1cc(N2CCN(C)CC2)nc(N)n1 , what value of Ki is listed for Histamine H4 receptor (Homo sapiens, UniProt Q9H3N8)?
3.16

###

molecular target: Histamine H4 receptor (Homo sapiens, UniProt Q9H3N8); assay: Displacement of [3H]histamine displacement from human histamine H4 receptor expressed in […] cells after 60 mins; type: cell-based, SK-N-MC
Listing of recorded pKi by entry.
// scale note: pKi = -log10(conc_M); give the bare number

compound smiles | observable | observed result
CC(C)CNc1cc(N(C)CCNc2ccnc(N)n2)nc(N)n1 | pKi | 7.40
Nc1nc(NCCNc2ccncn2)cc(-c2ccccc2)n1 | pKi | 5.70
CC(C)CNc1nccc(NCCN(C)c2cc(-c3ccccc3)nc(N)n2)n1 | pKi | 7.50

Return reported pKi; argument: CC(C)CNc1cc(NCCNc2cc(-c3ccccc3)nc(N)n2)ncn1
6.30

###

biological target: Histamine H4 receptor (Homo sapiens); test: Displacement of [3H]histamine displacement from human histamine H4 receptor expressed in […] cells after 60 mins; assay type: cell-based, SK-N-MC
Listing of recorded log10(Ki) by entry.
Values below are the log10 of the recorded Ki, with nM as the unit.

Solved entries (count: 8):
compound smiles | observable | observed result
CN(CCNc1ccnc(N)n1)C(=O)c1cc2ccccc2[nH]1 | log10(Ki) | 4.00
CN(CCNc1ccnc(N)n1)C(=O)c1cc2cc(Cl)ccc2[nH]1 | log10(Ki) | 3.50
CN(CCNc1cc(-c2ccccc2)nc(N)n1)c1ccnc(N)n1 | log10(Ki) | 1.90
Nc1nc(Cl)cc(NCCNc2cc(-c3ccccc3)nc(N)n2)n1 | log10(Ki) | 3.40
CC(C)CNc1nccc(NCCNc2cc(-c3ccccc3)nc(N)n2)n1 | log10(Ki) | 1.90
CC(C)CCc1cc(NCCNc2cc(-c3ccccc3)nc(N)n2)nc(N)n1 | log10(Ki) | 2.60
Nc1nccc(NCCNc2cc(-c3cccc(Cl)c3)nc(N)n2)n1 | log10(Ki) | 0.80
Nc1nccc(NCCNC(=O)c2cc3ccccc3[nH]2)n1 | log10(Ki) | 3.10

For the record CC(C)CNc1cc(NCCNc2ccnc(N)n2)ncn1 , what value of log10(Ki) is listed for Histamine H4 receptor (Homo sapiens)?
3.00

For the record CN(CCNc1ccnc(N)n1)c1cc(-c2ccccc2)nc(N)n1 , what value of log10(Ki) is listed for Histamine H4 receptor (Homo sapiens)?
1.00

For the record CC(C)CNc1nccc(NCCN(C)c2cc(-c3cccc(Cl)c3)nc(N)n2)n1 , what value of log10(Ki) is listed for Histamine H4 receptor (Homo sapiens)?
1.70

###

assay: Half life in human liver microsomes; type: ADME, Microsome
Listing of recorded half-life by entry.
// return numeric value only (unit: h, not printed)

Solved entries (count: 4):
compound smiles | unit string | half-life
Nc1nccc(NCCNc2cc(-c3cccc(Cl)c3)nc(N)n2)n1 | h | 0.85
CN1CCN(c2cc(-c3ccccc3)nc(N)n2)CC1 | h | 0.717
CC(C)CCc1cc(N2CCN(C)CC2)nc(N)n1 | h | 1.02
CC(C)CCc1cc(N(C)CCNc2ccnc(N)n2)nc(N)n1 | h | 1.37

# evaluate next
Return reported half-life; argument: CC(C)CNc1cc(N(C)CCNc2ccnc(N)n2)nc(N)n1
1.68

###

test: Half life in mouse liver microsomes; format: ADME, Microsome
Could you please mark true (1) for values of half-life below 4 min and false (0) for values at or above it?

Example cases with answers are listed next.
compound smiles | label
CC(C)CNc1cc(N(C)CCNc2ccnc(N)n2)nc(N)n1 | false (0)
Nc1nccc(NCCNc2cc(-c3cccc(Cl)c3)nc(N)n2)n1 | false (0)

Now look at this entry.
Does this compound meet the criterion half-life < 4 min? CN1CCN(C(=O)c2cc3cc(Cl)ccc3[nH]2)CC1
true (1)

###

target: Histamine H4 receptor (Homo sapiens, UniProt Q9H3N8); assay: Displacement of [3H]histamine displacement from human histamine H4 receptor expressed in […] cells after 60 mins; type: cell-based, SK-N-MC
Listing of recorded pKi by entry.
// scale note: pKi = -log10(conc_M); give the bare number

Solved entries (count: 10):
compound smiles | pKi
Nc1nccc(NCCNC(=O)c2cc3cc(Cl)ccc3[nH]2)n1 | 6.50
Nc1nccc(NCCNc2ccnc(N)n2)n1 | 6.10
CC(C)CCc1cc(NCCNc2ccnc(N)n2)nc(N)n1 | 7.60
Nc1nc(NCCNc2cc(-c3ccccc3)nc(N)n2)cc(-c2ccccc2)n1 | 6.00
CC(C)CNc1cc(NCCNc2cc(-c3ccccc3)nc(N)n2)nc(N)n1 | 5.50
CC(C)CCc1cc(N(C)CCNc2ccnc(N)n2)nc(N)n1 | 8.00
CC(C)CNc1nccc(NCCNc2cc(-c3cccc(Cl)c3)nc(N)n2)n1 | 7.30
CC(C)CNc1nc(NCCNc2ccnc(N)n2)cc(-c2ccccc2)n1 | 5.90
CC(C)CNc1nccc(NCCNc2ccnc(N)n2)n1 | 7.10
CC(C)CNc1cc(NCCNc2ccnc(N)n2)nc(N)n1 | 7.10

Return reported pKi; argument: CC(C)CCc1cc(NCCNc2cc(Cl)nc(N)n2)nc(N)n1
6.20

Return reported pKi; argument: Cc1nccc(NCCNc2cc(-c3ccccc3)nc(N)n2)n1
7.40

###

assay: Half life in human liver microsomes; format: ADME, Microsome
Listing of recorded half-life by entry.

Solved entries (count: 2):
compound | observable | observed result
CC(C)CCc1cc(NCCNc2ccnc(N)n2)nc(N)n1 | half-life | > 120 min
CC(C)CNc1cc(N2CCN(C)CC2)nc(N)n1 | half-life | > 120 min

# evaluate next
Return reported half-life; argument: CN1CCN(C(=O)c2cc3cc(Cl)ccc3[nH]2)CC1 [JNJ-7777120]
> 45 min

###

assay: Half life in mouse liver microsomes; assay type: ADME, Microsome
observable: half-life (min)
// return numeric value only (unit: min, not printed)

Solved entries (count: 3):
compound smiles | observed result
CC(C)CNc1cc(N2CCN(C)CC2)nc(N)n1 | 4
CN1CCN(c2cc(-c3ccccc3)nc(N)n2)CC1 | 4
CC(C)CCc1cc(NCCNc2ccnc(N)n2)nc(N)n1 | 18

Return reported half-life; argument: CC(C)CCc1cc(N(C)CCNc2ccnc(N)n2)nc(N)n1
8

Data origin, for the record: ChEMBL document CHEMBL2375220
